Target: PIM1 (Homo sapiens (Human))
Assay: biochemical
Type: biochemical
Conditions: 20 pM PIM1, 1 μM FAM-peptide, 10 μM ATP, 90 minutes at room temperature; read-out: PIM1 LC3K (KI)
Would you mind telling me the reported Ki of each entry?
Report the value in nM with no unit label.

Query: Need Ki of CC(C)C(=O)c1cc(F)c(-c2nc(C(=O)Nc3cnn(C)c3[C@@H]3CC[C@@H](N)[C@H](F)CO3)cs2)c(F)c1 , thanks.
Reply: 0.061

Query: Need Ki of Cn1ncc(NC(=O)c2nc(-c3c(F)cccc3F)sc2N)c1C1OCC(CO)CO1 (stereo not drawn) [Example 164] , thanks.
Reply: 0.105

Query: Need Ki of CC(C)n1cc(-c2nc(C(=O)Nc3cnn(C)c3[C@@H]3CC[C@@H](N)[C@@H](F)CO3)c(N)s2)cn1 , thanks.
Reply: 0.093

====

Would you mind telling me the reported Ki of each entry?
Molecular target: PIM1 (Homo sapiens (Human), UniProt P11309)
Sequence (P11309 whole entry): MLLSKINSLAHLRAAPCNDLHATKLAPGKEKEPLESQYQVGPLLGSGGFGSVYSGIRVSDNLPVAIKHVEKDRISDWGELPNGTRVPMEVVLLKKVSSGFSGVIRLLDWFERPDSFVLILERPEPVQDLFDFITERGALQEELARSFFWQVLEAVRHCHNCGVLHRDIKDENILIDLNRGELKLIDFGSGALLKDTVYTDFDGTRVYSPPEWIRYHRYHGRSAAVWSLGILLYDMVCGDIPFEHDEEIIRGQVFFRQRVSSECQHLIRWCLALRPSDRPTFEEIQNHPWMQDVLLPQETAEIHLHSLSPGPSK
Assay: biochemical
Format: biochemical
Conditions: 20 pM PIM1, 1 μM FAM-peptide, 10 μM ATP, 90 minutes at room temperature; read-out: PIM1 LC3K (KI)
Report the value in nM with no unit label.

Query: Need Ki of Cn1ncc(NC(=O)c2csc(-c3ccc(Cl)cc3F)n2)c1[C@@H]1CC[C@@H](N)[C@H](F)CO1 , thanks.
Reply: 0.002

Query: Need Ki of Cn1ncc(NC(=O)c2ccc(F)c(-c3ccc(Cl)cc3F)n2)c1[C@@H]1CC[C@@H](N)[C@H](F)CO1 , thanks.
Reply: 0.007

Query: Need Ki of Cn1ncc(NC(=O)c2ccc(F)c(-c3c(F)cc(C4(O)CCOCC4)cc3F)n2)c1[C@@H]1CC[C@@H](N)[C@H](F)CO1 , thanks.
Reply: 0.006

Query: Need Ki of Cn1ncc(NC(=O)c2nc(-c3c(F)cccc3F)sc2N)c1[C@H]1C[C@@H](N)CCO1 [Example 159] , thanks.
Reply: 0.019

Query: Need Ki of Cn1ncc(NC(=O)c2nc(-c3c(F)cccc3F)sc2N)c1[C@@H]1CC[C@@H](CN)O1 (stereo in doubt) [Example 155] , thanks.
Reply: 0.104

Query: Need Ki of Cc1cccnc1-c1nc(C(=O)Nc2cnn(C)c2[C@@H]2CC[C@@H](N)[C@H](F)CO2)cs1 , thanks.
Reply: 0.045

Query: Need Ki of Cn1ncc(NC(=O)c2nc(-c3cc(Cl)ccc3F)sc2N)c1[C@@H]1CC[C@@H](N)[C@H](F)CO1 , thanks.
Reply: 0.018

Query: Need Ki of Cn1ncc(NC(=O)c2nc(-c3ccccc3F)sc2N)c1[C@@H]1CC[C@@H](N)[C@H](F)CO1 , thanks.
Reply: 0.00509

Query: Need Ki of C[C@@H]1O[C@@H](c2c(NC(=O)c3csc(-c4c(F)cccc4F)n3)cnn2C)C[C@H](N)[C@@]1(C)O (single isomer, unassigned) , thanks.
Reply: 2.3

Query: Need Ki of Cc1nn(C)cc1-c1nc(C(=O)Nc2cnn(C)c2[C@@H]2CC[C@@H](N)[C@H](F)CO2)cs1 , thanks.
Reply: 0.283

Query: Need Ki of Cc1ccc(F)c(-c2nc(C(=O)Nc3cnn(C)c3[C@@H]3CC[C@@H](N)[C@@H](F)CO3)c(N)s2)c1 , thanks.
Reply: 0.02

Query: Need Ki of Cc1c(-c2nc(C(=O)Nc3cnn(C)c3[C@@H]3CC[C@@H](N)[C@@H](F)CO3)c(N)s2)cnn1C , thanks.
Reply: 0.007

Query: Need Ki of CC(O)c1cc(F)c(-c2nc(C(=O)Nc3cnn(C)c3[C@@H]3CC[C@@H](N)[C@H](F)CO3)ccc2F)c(F)c1 (stereo partly shown) , thanks.
Reply: 0.017

Query: Need Ki of CC(O)c1cc(F)c(-c2nc(C(=O)Nc3cnn(C)c3[C@@H]3CC[C@@H](N)[C@H](F)CO3)cs2)c(F)c1 (stereo partly shown) , thanks.
Reply: 0.029

Query: Need Ki of Cn1ncc(NC(=O)c2csc(-c3cccc(C(F)(F)F)n3)n2)c1[C@@H]1CC[C@@H](N)[C@H](F)CO1 , thanks.
Reply: 2.08

Query: Need Ki of Cc1ccc(F)c(-c2nc(C(=O)Nc3cnn(C)c3[C@@H]3CC[C@@H](N)[C@H](F)CO3)cs2)c1F , thanks.
Reply: 0.013

Query: Need Ki of COc1ccc(-c2nc(C(=O)Nc3cnn(C)c3[C@@H]3CC[C@@H](N)[C@H](F)CO3)cs2)c(F)c1 , thanks.
Reply: 0.059

Query: Need Ki of Cn1ncc(NC(=O)c2csc(-c3c(F)cccc3CO)n2)c1[C@@H]1CC[C@@H](N)[C@H](F)CO1 , thanks.
Reply: 7.2

====

Target: PIM1 (Homo sapiens (Human), UniProt P11309)
Test: biochemical
Assay type: biochemical
Details: 20 pM PIM1, 1 μM FAM-peptide, 10 μM ATP, 90 minutes at room temperature; read-out: PIM1 LC3K (KI)
Quantity Kind: Ki (nM)
Report the value in nM with no unit label.

Query: Need Ki of Cn1ncc(NC(=O)c2nc(-c3ccccc3F)sc2N)c1C12CCC(CN)(CC1)O2 , thanks.
Reply: 0.053

Query: Need Ki of CC[C@]1(CN)CO[C@H](c2c(NC(=O)c3nc(-c4c(F)cccc4F)sc3N)cnn2C)OC1 , thanks.
Reply: 0.015

Query: Need Ki of Cn1ncc(NC(=O)c2csc(-c3cccc(-c4cccc(Cl)c4F)c3F)n2)c1[C@@H]1CC[C@@H](N)[C@@H](F)CO1 , thanks.
Reply: 0.533

Query: Need Ki of Cn1ncc(NC(=O)c2csc(-c3c(F)cc(O[C@@H]4CCOC4)cc3F)n2)c1[C@@H]1CC[C@@H](N)[C@H](F)CO1 , thanks.
Reply: 0.003

Query: Need Ki of Cn1ncc(NC(=O)c2nc(-c3c(F)cccc3F)sc2N)c1C1CC[C@@H](O)[C@@H](O)CO1 (stereo partly drawn) , thanks.
Reply: 0.425

Query: Need Ki of Cn1ncc(NC(=O)c2nc(-c3c(F)cccc3F)sc2N)c1[C@@H]1CC[C@@H](N)C(F)(F)CO1 , thanks.
Reply: 0.013

Query: Need Ki of COC1(c2c(NC(=O)c3nc(-c4ncccc4F)sc3N)cnn2C)CCCCO1 (stereo not drawn) , thanks.
Reply: 0.118

Query: Need Ki of C[C@H](O)c1ccc(-c2nc(C(=O)Nc3cnn(C)c3[C@@H]3CC[C@@H](N)[C@H](F)CO3)cs2)c(F)c1F (single isomer, unassigned) , thanks.
Reply: 0.069

Query: Need Ki of Cn1ncc(NC(=O)c2nc(-c3c(F)cccc3F)sc2N)c1[C@H]1CC[C@H](F)[C@@H](N)CO1 , thanks.
Reply: 0.114

Query: Need Ki of Cn1ncc(NC(=O)c2csc(-c3cc[nH]n3)n2)c1[C@@H]1CC[C@@H](N)[C@H](F)CO1 , thanks.
Reply: 0.129

Query: Need Ki of Cn1ncc(NC(=O)c2csc(-c3n[nH]c4c3CCCC4)n2)c1[C@@H]1CC[C@@H](N)[C@H](F)CO1 , thanks.
Reply: 0.023

Query: Need Ki of Cn1ncc(NC(=O)c2nc(-c3c(F)cccc3F)sc2N)c1[C@H]1C[C@H](F)[C@@H](N)CCO1 , thanks.
Reply: 0.099

====

System: MM1.S (multiple myeloma) cells
Experiment: In vitro cell proliferation, MM1.S multiple myeloma cells;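 further: cells cultured in RPMI with 10% FBS and 2 mM L-Glutamine, seeded in 384-well plates, exposed to compound, cell viability measured by luminescence after CellTiter-Glo addition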
Format: cell-based
Conditions: Homo sapiens, MM1.S, 72 h, MM1.S cells, 72 hours, CELL TITER GLO; read-out: Prolif MM1S ATP (EC50)
Quantity Kind: pEC50
Units for pEC50: none; it is -log10 of a concentration expressed in mol/L.

Query: Give MM1.S (multiple myeloma) cells pEC50 for C[C@@H]1C[C@@H](N)CC[C@H](c2c(NC(=O)c3nc(-c4c(F)cccc4F)sc3N)cnn2C)O1 [Example 121]
Reply: 7.92

Query: Give MM1.S (multiple myeloma) cells pEC50 for COC1(c2cc(F)c(-c3nc(C(=O)Nc4cnn(C)c4[C@@H]4CC[C@@H](N)[C@H](F)CO4)cs3)c(F)c2)COC1 [Example 339]
Reply: 5.72

Query: Give MM1.S (multiple myeloma) cells pEC50 for C[C@@H]1O[C@H](c2c(NC(=O)c3ccc(F)c(-c4c(F)cccc4F)n3)cnn2C)C[C@H](N)[C@@]1(C)O [Example 344]
Reply: 5.01

Query: Give MM1.S (multiple myeloma) cells pEC50 for COc1cccc(-c2nc(C(=O)Nc3cnn(C)c3[C@@H]3CC[C@@H](N)[C@H](F)CO3)cs2)c1F [Example 362]
Reply: 6.47

Query: Give MM1.S (multiple myeloma) cells pEC50 for C[C@@H]1O[C@@H](c2c(NC(=O)c3csc(-c4c(F)cccc4F)n3)cnn2C)C[C@H](N)[C@@]1(C)O (single isomer, unassigned) [Example 342]
Reply: 4.67

Query: Give MM1.S (multiple myeloma) cells pEC50 for Cc1nn(C)c(F)c1-c1nc(C(=O)Nc2cnn(C)c2[C@@H]2CC[C@@H](N)[C@H](F)CO2)cs1 [Example 286]
Reply: 4.90

Query: Give MM1.S (multiple myeloma) cells pEC50 for C[C@@H]1O[C@H](c2c(NC(=O)c3nc(-c4c(F)cccc4F)sc3N)cnn2C)C[C@H](N)[C@@]1(C)O [Example 346]
Reply: 5.37

Query: Give MM1.S (multiple myeloma) cells pEC50 for CN(C)C(=O)c1cc(F)c(-c2nc(C(=O)Nc3cnn(C)c3[C@@H]3CC[C@@H](N)[C@H](F)CO3)cs2)c(F)c1 [Example 354]
Reply: 5.29

Query: Give MM1.S (multiple myeloma) cells pEC50 for Cn1ncc(NC(=O)c2csc(-c3ccccn3)n2)c1[C@@H]1CC[C@@H](N)[C@H](F)CO1 [Example 326]
Reply: 6.36

Query: Give MM1.S (multiple myeloma) cells pEC50 for Cn1ncc(NC(=O)c2nc(-c3c(F)cccc3Cl)sc2N)c1[C@@H]1CC[C@@H](N)[C@H](F)CO1 [Example 328]
Reply: 5.82
